Values compiled from ChEMBL document CHEMBL1144665.

System: HepG2
Assay: Cytotoxicity against human HepG2 cells assessed as inhibition of [3H]thymidine after 48 hrs
Type: functional, cell-based
Experimental Endpoint: pIC50
Expect pIC50 as a plain number equal to -log10 of the molar concentration.

• CC[C@@]1(O)C(=O)OCc2c1cc1n(c2=O)Cc2cc3cc(O)ccc3nc2-1 [HYDROXYCAMPTOTHECIN] = 8.27

As a next step, examine the compound that follows.
Dear colleague, please send me the reported pIC50 for "CC[C@@]1(O)C(=O)OCc2c1cc1n(c2=O)Cc2cc3cc(OCc4ccc(O[C@@H]5O[C@H](C(=O)O)[C@@H](O)[C@H](O)[C@H]5O)c([N+](=O)[O-])c4)ccc3nc2-1" when you can.
7.25

---

Assay: Aqueous solubility in phosphate buffer at pH 7.0
Assay type: physicochemical
Settings: phosphate buffer, read-out: Solubility
Experimental Endpoint: solubility (µM)
Write the number in µM without appending the unit.

Dear colleague, please send me the reported solubility for "CC[C@@]1(O)C(=O)OCc2c1cc1n(c2=O)Cc2cc3cc(OCc4ccc(O[C@@H]5O[C@H](C(=O)O)[C@@H](O)[C@H](O)[C@H]5O)c([N+](=O)[O-])c4)ccc3nc2-1" when you can.
2600

---

Assay: Stability in human plasma assessed as degradation after 10 mins
Assay type: ADME, cell-free
Details: read-out: Activity
Experimental Endpoint: metabolised at 10 min
Numeric answer plus unit only.

Dear colleague, please send me the reported metabolised at 10 min for "CC[C@@]1(O)C(=O)OCc2c1cc1n(c2=O)Cc2cc3cc(OC(=O)OCc4ccc(O[C@@H]5O[C@H](C(=O)OC)[C@@H](O)[C@H](O)[C@H]5O)cc4)ccc3nc2-1" when you can.
70%

---

# solubility per entry
Assay: Aqueous solubility in phosphate buffer at pH 4.0
Assay type: physicochemical
Numeric answer plus unit only.

* CC[C@@]1(O)C(=O)OCc2c1cc1n(c2=O)Cc2cc3cc(O)ccc3nc2-1 [HYDROXYCAMPTOTHECIN] | 13.7 µM

As a next step, examine the molecule that follows.
Dear colleague, please send me the reported solubility for "CC[C@@]1(O)C(=O)OCc2c1cc1n(c2=O)Cc2cc3cc(OCc4ccc(O[C@@H]5O[C@H](C(=O)O)[C@@H](O)[C@H](O)[C@H]5O)c([N+](=O)[O-])c4)ccc3nc2-1" when you can.
1100 µM

---

Test system: HT-29
Experiment: Cytotoxicity against human HT29 cells assessed as inhibition of [3H]thymidine in presence of beta-glucuronidase after 48 hrs
Assay type: functional, cell-based
Experimental Endpoint: IC50 (nM)
Write the number in nM without appending the unit.

Please respond with reported IC50 (system HT-29) for "CC[C@@]1(O)C(=O)OCc2c1cc1n(c2=O)Cc2cc3cc(OCc4ccc(O[C@@H]5O[C@H](C(=O)O)[C@@H](O)[C@H](O)[C@H]5O)c([N+](=O)[O-])c4)ccc3nc2-1" .
10
